# System: human apolipoprotein B mRNA
# test-details: Inhibition of human apolipoprotein B mRNA levels in HepG2 cells, quantitative real-time PCR
# Type: cell-based
# condition-set: HepG2 cells; human apolipoprotein B mRNA; oligonucleotides targeting genomic sequence SEQ ID NO 334; averages from two experiments
# Protocol: The human hepatoblastoma cell line HepG2 was obtained from the American Type Culture Collection (Manassas, Va.). […] Quantitation of apolipoprotein B mRNA levels was determined by real-time quantitative PCR using the ABI PRISM™ 7700 Sequence Detection System (PE-Applied Biosystems, Foster City, Calif.) according to manufacturer's instructions. […]
In the oligonucleotide strings, read from the 5' end, every base follows the letter of its sugar. An asterisk marks phosphorothioate; unmarked linkages are phosphodiester. Other units and linkages are bracketed, terminal groups are in braces. A string of capitals states the bases alone. e = 2'-O-(2-methoxyethyl) (MOE); [5mC] = 5-methylcytosine; d = 2'-deoxy (DNA)
Rule: % INHIB below 40% gives Satisfied, anything at or above gives Not satisfied.

- 301075 (eT*eT*e[5mC]*eA*eA*dG*dG*dG*d[5mC]*d[5mC]*dA*d[5mC]*dT*dG*d[5mC]*eT*eA*eT*e[5mC]*eA; antisense) [compound 301075]: Not satisfied
- 301089 (antisense eG*eA*eA*eG*eG*dT*d[5mC]*d[5mC]*dA*dT*dG*dG*dT*dT*d[5mC]*eA*eT*e[5mC]*eT*eG) [compound 301089]: Satisfied
- 301065 (eA*eG*e[5mC]*eT*eG*d[5mC]*dA*dG*dT*dG*dG*d[5mC]*d[5mC]*dG*dA*eT*e[5mC]*eA*eG*e[5mC]; antisense) [compound 301065]: Not satisfied
- 301109 (antisense eG*eT*eT*eT*e[5mC]*dA*dT*dG*dG*dA*dA*d[5mC]*dT*d[5mC]*dA*eG*e[5mC]*eG*e[5mC]*eA) [compound 301109]: Not satisfied

Consider now this further substance.
Q) # TODO verify % INHIB < 40% strictly for this substance: 301129 (e[5mC]*eA*eT*eT*eT*dG*d[5mC]*dA*d[5mC]*dA*dA*dG*dT*dG*dT*eT*eT*eG*eT*eT; antisense) [compound 301129]
A) Satisfied

* * *

Entries annotated with measured Lipoproteins TRIG
# test-details: ob/ob mice (Example 50): cholesterol, lipid, triglyceride, liver enzyme and glucose levels
# Assay type: in vivo, mouse
# condition-set: high fat high cholesterol diet, 50 mg/kg i.p. twice a week, six weeks
# Experimental: Ob/ob mice receiving a high fat, high cholesterol diet (60% kcal fat supplemented with 0.15% cholesterol) were treated with one of several oligonucleotides to evaluate their effect on apolipoprotein B-related phenotypic endpoints in ob/ob mice. […] At study termination and forty eight hours after the final injections, animals were sacrificed and evaluated for target mRNA levels in liver, cholesterol and triglyceride levels, liver enzyme levels, serum glucose levels, and PTEN levels.
In the oligonucleotide strings, read from the 5' end, every base follows the letter of its sugar. An asterisk marks phosphorothioate; unmarked linkages are phosphodiester. Other units and linkages are bracketed, terminal groups are in braces. A string of capitals states the bases alone. e = 2'-O-(2-methoxyethyl) (MOE); [5mC] = 5-methylcytosine; d = 2'-deoxy (DNA)
Your reply should be a number followed by the unit it is expressed in.

The substance 147483 (ATGTCAATGCCACATGTCCA; phosphorothioate, 2'-MOE wings, chemistry not fully specified) [compound 147483] showed Lipoproteins TRIG equal to 99.8 mg/dL

The substance 116847 (antisense CTGCTAGCCTCTGGATTTGA; listed as DNA, chemistry not given here) [compound 116847] showed Lipoproteins TRIG equal to 196.5 mg/dL

The substance 141923 (CCTTCCCTGAAGGTTCCTCC; listed as DNA, chemistry not given here) [compound 141923] showed Lipoproteins TRIG equal to 196.5 mg/dL

The substance 147764 (eG*eT*e[5mC]*e[5mC]*e[5mC]*dT*dG*dA*dA*dG*dA*dT*dG*dT*d[5mC]*eA*eA*eT*eG*e[5mC]) [compound 147764] showed Lipoproteins TRIG equal to 101.2 mg/dL

These entries and their values trace back to patent US7803930B2.
